Attribution: ChEMBL document CHEMBL1126878

Overview of reported ED20 across a group of compounds:
- Tested on: Cavia porcellus
- assay_explanation: Effective dose in vivo for cardiac refractoriness (ERP) using paced guinea pig model
- Assay type: functional
Give just the numeric value; mg/kg need not be written.

Previously resolved entries follow.
# compound, value
data = [
    ("CN(C)CC1=NC(c2ccccc2)c2ccccc2CN1C.O=C(O)/C=C/C(=O)O (stereo not drawn)", 0.6),
    ("CN1Cc2ccccc2C(c2ccccc2)N=C1c1ccccc1 (stereo not drawn)", 0.3),
    ("CC(C)N(CCC(C(N)=O)(c1ccccc1)c1ccccn1)C(C)C (stereo not drawn) [DISOPYRAMIDE]", 0.2),
]

Can you look up ED20 on Cavia porcellus for CN1Cc2ccccc2C(c2ccc(Cl)cc2)N=C1CCc1ccccc1 (stereo not drawn) ?
0.2

Cool, now CCC1=NC(c2ccccc2)c2ccccc2CN1C(C)C.Cl (stereo not drawn)
0.2

Cool, now CCC1=N[C@H](c2ccccc2)c2ccccc2CN1C.Cl
0.3

Cool, now CCC1=NC(c2ccccc2)c2ccccc2CN1Cc1ccccc1.Cl (stereo not drawn)
1

Cool, now C=C[C@H]1CN2CC[C@H]1C[C@@H]2[C@@H](O)c1ccnc2ccc(OC)cc12
7.2

Cool, now CCC1=N[C@@H](c2ccccc2)c2ccccc2CN1C.Cl
7.1

Cool, now CN1Cc2ccccc2C(c2ccccc2)N=C1COc1ccc(Cl)cc1 (stereo not drawn)
0.2

Cool, now CN1Cc2ccccc2C(c2ccccc2)N=C1CCc1ccc(Cl)cc1.O=C(O)/C=C/C(=O)O (stereo not drawn)
0.1

Cool, now COc1ccc(OCC2=NC(c3ccccc3)c3ccccc3CN2C)cc1.Cl (stereo not drawn)
0.1

----------
- system: Sodium channel protein type 5 subunit alpha (cardiac sodium channel) (Rattus norvegicus, UniProt P15389)
- Sequence (P15389 whole entry): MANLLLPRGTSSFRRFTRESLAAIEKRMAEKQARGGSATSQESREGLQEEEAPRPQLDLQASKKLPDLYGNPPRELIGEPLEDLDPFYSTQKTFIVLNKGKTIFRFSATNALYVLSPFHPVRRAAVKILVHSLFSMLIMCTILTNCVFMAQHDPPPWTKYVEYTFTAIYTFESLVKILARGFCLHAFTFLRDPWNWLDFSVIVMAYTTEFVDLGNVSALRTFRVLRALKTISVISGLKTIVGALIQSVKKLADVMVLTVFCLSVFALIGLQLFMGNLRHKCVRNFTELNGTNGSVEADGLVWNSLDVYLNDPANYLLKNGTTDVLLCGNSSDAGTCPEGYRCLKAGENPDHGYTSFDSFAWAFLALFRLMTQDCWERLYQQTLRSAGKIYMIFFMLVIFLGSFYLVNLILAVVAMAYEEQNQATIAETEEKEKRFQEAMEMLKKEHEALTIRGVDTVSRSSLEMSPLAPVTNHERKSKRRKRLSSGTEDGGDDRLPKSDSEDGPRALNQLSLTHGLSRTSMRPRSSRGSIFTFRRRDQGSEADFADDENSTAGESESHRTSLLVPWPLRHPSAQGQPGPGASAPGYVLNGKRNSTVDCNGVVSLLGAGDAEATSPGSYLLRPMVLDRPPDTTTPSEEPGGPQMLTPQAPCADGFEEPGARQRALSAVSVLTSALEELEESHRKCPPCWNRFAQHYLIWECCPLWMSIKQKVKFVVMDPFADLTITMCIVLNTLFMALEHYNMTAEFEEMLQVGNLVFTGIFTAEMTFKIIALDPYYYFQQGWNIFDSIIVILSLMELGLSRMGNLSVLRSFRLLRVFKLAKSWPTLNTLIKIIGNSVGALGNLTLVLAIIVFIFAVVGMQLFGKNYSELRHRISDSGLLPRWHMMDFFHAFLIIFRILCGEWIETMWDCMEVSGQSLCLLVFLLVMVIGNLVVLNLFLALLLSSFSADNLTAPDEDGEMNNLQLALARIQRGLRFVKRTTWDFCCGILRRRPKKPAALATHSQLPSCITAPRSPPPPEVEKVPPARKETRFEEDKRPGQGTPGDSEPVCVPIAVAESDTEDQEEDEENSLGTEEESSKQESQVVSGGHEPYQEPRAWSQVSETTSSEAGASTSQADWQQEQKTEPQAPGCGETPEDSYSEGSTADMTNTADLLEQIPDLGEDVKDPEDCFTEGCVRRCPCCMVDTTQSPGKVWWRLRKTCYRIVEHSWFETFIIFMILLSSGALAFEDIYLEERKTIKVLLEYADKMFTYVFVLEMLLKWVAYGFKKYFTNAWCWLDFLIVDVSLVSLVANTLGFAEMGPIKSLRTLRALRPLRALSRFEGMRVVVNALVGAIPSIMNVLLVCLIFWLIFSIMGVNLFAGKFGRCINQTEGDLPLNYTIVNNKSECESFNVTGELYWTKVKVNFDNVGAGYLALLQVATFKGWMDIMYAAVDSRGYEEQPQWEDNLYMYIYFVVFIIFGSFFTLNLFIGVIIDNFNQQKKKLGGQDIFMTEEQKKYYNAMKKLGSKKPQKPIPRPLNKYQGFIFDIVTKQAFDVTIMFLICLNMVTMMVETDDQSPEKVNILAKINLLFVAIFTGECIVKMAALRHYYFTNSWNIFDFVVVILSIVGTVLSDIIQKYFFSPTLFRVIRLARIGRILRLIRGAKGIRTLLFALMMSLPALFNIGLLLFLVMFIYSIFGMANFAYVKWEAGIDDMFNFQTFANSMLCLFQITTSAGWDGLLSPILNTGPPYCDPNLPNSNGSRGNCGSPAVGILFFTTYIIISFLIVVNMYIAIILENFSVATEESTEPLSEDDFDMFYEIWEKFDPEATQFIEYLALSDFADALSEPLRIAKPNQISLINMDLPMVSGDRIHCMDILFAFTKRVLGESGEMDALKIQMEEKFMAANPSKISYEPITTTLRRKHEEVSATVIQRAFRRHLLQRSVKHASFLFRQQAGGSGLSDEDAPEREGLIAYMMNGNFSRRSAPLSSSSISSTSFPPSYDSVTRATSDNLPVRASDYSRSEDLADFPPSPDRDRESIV
- assay_explanation: in vitro
- measurement_setup: sodium channel from cardiac myocytes, probe [3H]batrachotoxin ([3H]BTX)
- Description: Percentage inhibition of specific binding of [3H]batrachotoxin [3H]BTX) in sodium channel from cardiac myocytes at 10 uM
Overview of reported inhibition at 10 µM across a group of molecules:
Give just the numeric value; % need not be written.

# molecule, value_units, inhibition at 10 µM
rows = [
    ("CCN(CC)CC1=NC(C)(c2ccccc2)c2ccccc2CN1C.Cl (stereo not drawn)", "%", 90),
    ("CCC1=NC(C)(c2ccccc2)c2ccccc2CN1C.O=C(O)/C=C/C(=O)O (stereo not drawn)", "%", 60),
    ("CN1Cc2ccccc2C(c2ccccc2)N=C1N.Cl (stereo not drawn)", "%", 91),
    ("CN1Cc2ccccc2C(C)(c2ccccc2)N=C1CC(O)c1ccccc1 (stereo not drawn)", "%", 92),
    ("CN1Cc2ccccc2C(c2ccccc2)N=C1COc1ccccc1.Cl (stereo not drawn)", "%", 98),
    ("CN1C=NC(c2ccccc2)c2ccccc2C1 (stereo not drawn)", "%", 68),
    ("CN(C)CC1=NC(c2ccccc2)c2ccccc2CN1C.O=C(O)/C=C/C(=O)O (stereo not drawn)", "%", 44),
]

Please find the next molecule below.
Entry CCC1=NC(Cc2ccccc2)c2ccccc2CN1C (stereo not drawn) has what inhibition at 10 µM?
84
